Data provenance: the supplement of paper PMC11208160

Assay: recombinant UMI read abundance after kanamycin selection (control-corrected) (log10(CPM+1)); higher = more efficient recombination; extreme values may be limits of the assay; sequences stand for … in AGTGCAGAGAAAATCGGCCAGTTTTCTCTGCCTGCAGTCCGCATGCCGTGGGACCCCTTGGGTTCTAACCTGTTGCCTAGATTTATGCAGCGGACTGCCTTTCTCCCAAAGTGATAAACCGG…AGGTTGGTTTCACT; site = the 11-nt donor;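 further: IS621 bridge recombinase in Escherichia coli cells against a fixed T5 target plasmid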
endpoint-label: recombinant UMI read abundance (log10)
Numbers only.

Sample records with recombinant UMI read abundance (log10):
sequence-text	recombinant UMI read abundance (log10)
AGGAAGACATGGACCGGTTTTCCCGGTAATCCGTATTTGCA (site CGGAAGACTTG)	0.801
AGACAGTCATGGACCGGTTTTCCCGGTAATCCGTATTTGAT (site AGACAGTCTAT)	2.94
CGATCGGCATGGACCGGTTTTCCCGGTAATCCGTATTTGTT (site CGATCGCCTAA)	0.0111
GGTAAACCATGGACCGGTTTTCCCGGTAATCCGTATTTGAA (site GGTAAACCTTT)	0
ACAAGTGCATGGACCGGTTTTCCCGGTAATCCGTATTTGAC (site ACAAGTGCTGT)	2.62

Below are 3 sequences. Give each one its recombinant UMI read abundance (log10).
1. CTCACTCCATGGACCGGTTTTCCCGGTAATCCGTATTTGTA (site CTCACTCCTTA)
2. GATTATGCATGGACCGGTTTTCCCGGTAATCCGTATTTGGA (site AATTATGCTTC)
3. TCTTTACCATGGACCGGTTTTCCCGGTAATCCGTATTTGTA (site TCTTTACCTTA)

[0.981, 0.871, 0.00582]

What recombinant UMI read abundance (log10) value was documented for this sequence, AGTTAGACATGGACCGGTTTTCCCGGTAATCCGTATTTGAG (site CGTTAGACTCT) ? 1.06

* * *

Assay: recombinant UMI read abundance after kanamycin selection (control-corrected) (log10(CPM+1)); higher = more efficient recombination; extreme values may be limits of the assay; sequences stand for … in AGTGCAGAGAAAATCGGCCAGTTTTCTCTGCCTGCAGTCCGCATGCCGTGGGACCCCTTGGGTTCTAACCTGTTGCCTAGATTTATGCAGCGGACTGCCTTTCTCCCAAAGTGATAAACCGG…AGGTTGGTTTCACT; site = the 11-nt donor
Give measured recombinant UMI read abundance (log10) for each item. Keep answers brief.

sequence-text	experimental-value
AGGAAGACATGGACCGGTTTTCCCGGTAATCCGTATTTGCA (site CGTAAGACTTG)	0.977
CTGCTATCATGGACCGGTTTTCCCGGTAATCCGTATTTGAC (site CTGCTATCTGT)	1.26

# batch size: 4; output recombinant UMI read abundance (log10) per entry
1. TATAGGCCATGGACCGGTTTTCCCGGTAATCCGTATTTGAG (site TATAGGCCTCT)
2. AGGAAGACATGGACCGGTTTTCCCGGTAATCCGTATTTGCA (site GTGAAGACTTG)
3. AAGCACTCATGGACCGGTTTTCCCGGTAATCCGTATTTGGG (site AAGCACGCTCC)
4. GCCAATCCATGGACCGGTTTTCCCGGTAATCCGTATTTGAA (site GTCAATCCTTT)

1. 0.0191
2. 0
3. 0.0931
4. 0.00267

Consider the following items and state reported recombinant UMI read abundance (log10) for each.
1. GTGCGTGCATGGACCGGTTTTCCCGGTAATCCGTATTTGGT (site GTGCGTGCTAC)
2. TCTTTGGCATGGACCGGTTTTCCCGGTAATCCGTATTTGTG (site TTTTTGGCTCA)
3. GGGGCAACATGGACCGGTTTTCCCGGTAATCCGTATTTGCA (site GGGGCAGCTTG)

0.346
0.0253
0

* * *

Assay: recombinant UMI read abundance after kanamycin selection (control-corrected) (log10(CPM+1)); higher = more efficient recombination; extreme values may be limits of the assay; sequences stand for … in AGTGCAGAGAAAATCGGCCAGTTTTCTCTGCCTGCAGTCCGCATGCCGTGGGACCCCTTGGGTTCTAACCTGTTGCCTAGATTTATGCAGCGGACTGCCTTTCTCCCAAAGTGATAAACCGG…AGGTTGGTTTCACT; site = the 11-nt donor
endpoint-label: recombinant UMI read abundance (log10)
Numbers only.

Some solved cases for reference:
sequence-text	recombinant UMI read abundance (log10)
CTCCCTACATGGACCGGTTTTCCCGGTAATCCGTATTTGAG (site CTCCATACTCT)	0.00249
TCCTAATCATGGACCGGTTTTCCCGGTAATCCGTATTTGTT (site TCCTAATCTAA)	0
CTGCATCCATGGACCGGTTTTCCCGGTAATCCGTATTTGTT (site CTGCATCCTAA)	0.855
GGTTGCCCATGGACCGGTTTTCCCGGTAATCCGTATTTGAT (site GATTGCCCTAT)	0.0175
GACCGGGCATGGACCGGTTTTCCCGGTAATCCGTATTTGAA (site GACCGGGCTTT)	0.143

I have 5 sequences here; please give me recombinant UMI read abundance (log10) for each one.
1. CCGATATCATGGACCGGTTTTCCCGGTAATCCGTATTTGTC (site CCGATATCTGA)
2. GTCCCGTCATGGACCGGTTTTCCCGGTAATCCGTATTTGGT (site GTCCCGTCTAC)
3. AATGTATCATGGACCGGTTTTCCCGGTAATCCGTATTTGCT (site AATGTATCTAG)
4. GTTAGAACATGGACCGGTTTTCCCGGTAATCCGTATTTGTC (site GTTAGAACTGG)
5. CACACGGCATGGACCGGTTTTCCCGGTAATCCGTATTTGAG (site CACACGGCTCT)

1: 1.21; 2: 0.849; 3: 2.56; 4: 0; 5: 1.83

Can you give me recombinant UMI read abundance (log10) for all of these, one by one?
1. CTCCAAGCATGGACCGGTTTTCCCGGTAATCCGTATTTGAG (site GTCCAAGCTCT)
2. GAAAGGCCATGGACCGGTTTTCCCGGTAATCCGTATTTGCA (site GAAAGGCCTTG)
3. CGGAGTACATGGACCGGTTTTCCCGGTAATCCGTATTTGTT (site CGGAGTACTAA)

1. 0.0157
2. 0
3. 2.14

Quick request: recombinant UMI read abundance (log10) for each listed item, please.
1. TAGAATACATGGACCGGTTTTCCCGGTAATCCGTATTTGAA (site TAGAATACTTA)
2. ATGTCCTCATGGACCGGTTTTCCCGGTAATCCGTATTTGTA (site ATGTCCTCTTA)

0.0126
2.5

Please give recombinant UMI read abundance (log10) for each item listed below.
1. TTGGAATCATGGACCGGTTTTCCCGGTAATCCGTATTTGCG (site TCGGAATCTCG)
2. CCCTTATCATGGACCGGTTTTCCCGGTAATCCGTATTTGTC (site CCCCTATCTGA)
3. CTCCCTTCATGGACCGGTTTTCCCGGTAATCCGTATTTGAG (site CTCCCTGCTCT)
4. CCGTTAGCATGGACCGGTTTTCCCGGTAATCCGTATTTGTG (site CCGTTGGCTCA)

1. 0.968
2. 0
3. 0.00848
4. 0.0165

Hey, can you go through the list below and give me recombinant UMI read abundance (log10) for every item?
1. CCCCATTCATGGACCGGTTTTCCCGGTAATCCGTATTTGGA (site CCCCATTCTTC)
2. TAGGAATCATGGACCGGTTTTCCCGGTAATCCGTATTTGCA (site TAGGAATCTTG)
3. CTAGTATCATGGACCGGTTTTCCCGGTAATCCGTATTTGTC (site CTAGTATCTGG)
4. CAGGTCACATGGACCGGTTTTCCCGGTAATCCGTATTTGGG (site CAAGTCACTCC)

0.274
2.82
3.08
0.0193

List recombinant UMI read abundance (log10) for every entry below, keeping the order given.
1. CCATCATCATGGACCGGTTTTCCCGGTAATCCGTATTTGCT (site CGATCATCTAG)
2. CGATCGACATGGACCGGTTTTCCCGGTAATCCGTATTTGTT (site CGATCGACTTA)

0
0.271

Provide reported recombinant UMI read abundance (log10) for each item, in the same order as listed.
1. CATTCATCATGGACCGGTTTTCCCGGTAATCCGTATTTGCT (site CGATCATCTAG)
2. AGGCCTACATGGACCGGTTTTCCCGGTAATCCGTATTTGAC (site AGGTCTACTGT)
3. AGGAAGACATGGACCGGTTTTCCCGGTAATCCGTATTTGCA (site AGGGAGACTCG)

1: 0.633; 2: 0; 3: 0

Could you report recombinant UMI read abundance (log10) for every entry in the following list?
1. GACGGCCCATGGACCGGTTTTCCCGGTAATCCGTATTTGTT (site CACGGCCCTAA)
2. CTACTTTCATGGACCGGTTTTCCCGGTAATCCGTATTTGAC (site CTAGTATCTGT)
3. CCCATATCATGGACCGGTTTTCCCGGTAATCCGTATTTGTT (site CCCATATCTGA)

[0.0467, 0, 0]
